Target or test system: Bromodomain-containing protein 4 (Homo sapiens)
Protocol details: Binding affinity to BRD4 BD1 (unknown origin) at 25 degree C by ITC analysis
Provide the recorded pKd for the entries that follow.
// scale note: pKd = -log10(conc_M); give the bare number

Respond only with pKd recorded for "COc1ccc(S(=O)(=O)N2CCCCC2)cc1NC(=O)c1[nH]c(C)c2c1CCCCC2=O"
7.30

Please report pKd for the following compound: "CCN(CC)S(=O)(=O)c1ccc(O)c(NC(=O)c2[nH]c(C)c3c2CCCCC3=O)c1"
7.15

Please look at this compound and report its pKd: "COc1ccc(S(=O)(=O)N2CC3(COC3)C2)cc1NC(=O)c1[nH]c(C)c2c1CCCCC2=O"
6.59

Give recorded pKd. "COc1ccc(S(=O)(=O)N2CCCCCC2)cc1NC(=O)c1[nH]c(C)c2c1CCCCC2=O"
6.74

Give the measured pKd for "CCN(CC)S(=O)(=O)c1ccc(OC)c(NC(=O)c2[nH]c(C)c3c2CCCCC3=O)c1"
6.85

Specify pKd for "COc1ccc(S(=O)(=O)N2CCOCC2)cc1NC(=O)c1[nH]c(C)c2c1CCCCC2=O" and stop.
7.10

For "COc1ccc(S(=O)(=O)N2CCN(C)CC2)cc1NC(=O)c1[nH]c(C)c2c1CCCCC2=O" , write its pKd.
6.38

* * *

System: SK-MEL-5
Protocol details: Growth inhibition of human SK-MEL-5 cells after 72 hrs by CellTiter 96S AQeous non-radioactive cell proliferation assay
Assay type: functional
Measurement context: Homo sapiens, SK-MEL-5
Quantity: GI50 (µM)
The figure you give is taken to be in µM; do not add the unit.

State its GI50: "COc1ccc(S(=O)(=O)N2CCCCC2)cc1NC(=O)c1[nH]c(C)c2c1CCCCC2=O"
6.79

State its GI50 for this compound: "CC(=O)c1cc(-c2cc(C(=O)NC3CC3)ccc2C)c2ncccn12"
2.77

State its GI50: "CCN(CC)S(=O)(=O)c1ccc(OC)c(NC(=O)c2[nH]c(C)c3c2CCCCC3=O)c1"
16.3

Identify the reported GI50 for the following entry. "COc1ccc(S(=O)(=O)N2CC3(COC3)C2)cc1NC(=O)c1[nH]c(C)c2c1CCCCC2=O"
20.8

Supply recorded GI50 for "CCc1c(C(=O)NCc2c(O)ccc3cccc(O)c23)[nH]c(C)c1C(C)=O" here.
4.2

Note GI50 for the compound shown: "COc1ccc(S(=O)(=O)N2CCCCCC2)cc1NC(=O)c1[nH]c(C)c2c1CCCCC2=O"
6.85

For the compound "COc1ccc(S(=O)(=O)N2CCOCC2)cc1NC(=O)c1[nH]c(C)c2c1CCCCC2=O" , report GI50.
6.8

* * *

Target or test system: Bromodomain-containing protein 4 (Homo sapiens)
Protocol details: Binding affinity to human BRD4 BD1 (N44 to E168 aa residues) by bromoKdELECT Discover assay
Quantity: Kd

Report Kd on Bromodomain-containing protein 4 (Homo sapiens) for this entry: "CCc1c(C(=O)NCc2c(O)ccc3cccc(O)c23)[nH]c(C)c1C(C)=O"
> 4 µM

* * *

Test system: SK-MEL-5
Protocol details: Growth inhibition of human SK-MEL-5 cells after 72 hrs by CellTiter 96S AQeous non-radioactive cell proliferation assay
Format: functional
Measurement context: Homo sapiens, SK-MEL-5
Assignment: determine reported GI50 for the given molecules.

Tell me measured GI50 for "COc1ccc(S(=O)(=O)N2CCCCC2)cc1NC(=O)c1c2c(c(C)n1C)C(=O)CCCC2" please.
> 10 µM

For the molecule "CCC(=O)N1CCOc2c(cc(-c3ccc(OC)c(OC)c3)cc2OC[C@H]2CCCN(C)C2)C1" , give its reported GI50.
> 50 µM

Supply measured GI50 of "CCN(CC)S(=O)(=O)c1ccc(O)c(NC(=O)c2[nH]c(C)c3c2CCCCC3=O)c1" in your reply.
> 80 µM

State, in one line, measured GI50 of "COc1ccc(S(=O)(=O)N2CCN(C)CC2)cc1NC(=O)c1[nH]c(C)c2c1CCCCC2=O"
> 20 µM
